# method: Intrinsic clearance in human liver microsomes at 1 uM after 30 mins in presence of NADPH by LC-MS/MS analysis
# Assay type: ADME
# experimental-parameters: read-out: CLH
experimental-readout: microsomal CLint at 1 µM (µL/min/mg)
One number for each entry, in µL/min/mg.

In [3]: df
Out[3]:
                            compound_string  endpoint_result
0  COc1cc(C(=O)N2CCN(C)CC2)ccc1NC(=O)c1csc2cncnc12               26

Kindly give each listed record's microsomal CLint at 1 µM.
1. COc1cc(N2CCN(C)CC2)ccc1NC(=O)c1csc2cncnc12
2. COc1cc(C(=O)NCCCN2CCN(C)CC2)ccc1NC(=O)c1csc2cncnc12

## Output
1: 11; 2: 21

* * *

# method: Intrinsic clearance in mouse liver microsomes at 1 uM after 30 mins in presence of NADPH by LC-MS/MS analysis
# Assay type: ADME
# experimental-parameters: read-out: CLH
experimental-readout: microsomal CLint at 1 µM (µL/min/mg)
One number for each entry, in µL/min/mg.

## Input Fill blank: measured microsomal CLint at 1 µM of the molecule `COc1cc(C(=O)NCCCN2CCN(C)CC2)ccc1NC(=O)c1csc2cncnc12` is ____.
## Output 80

* * *

# target-system: Mitogen-activated protein kinase kinase kinase 7 (Homo sapiens)
# Sequence (O43318 whole entry, the tested form may be a part): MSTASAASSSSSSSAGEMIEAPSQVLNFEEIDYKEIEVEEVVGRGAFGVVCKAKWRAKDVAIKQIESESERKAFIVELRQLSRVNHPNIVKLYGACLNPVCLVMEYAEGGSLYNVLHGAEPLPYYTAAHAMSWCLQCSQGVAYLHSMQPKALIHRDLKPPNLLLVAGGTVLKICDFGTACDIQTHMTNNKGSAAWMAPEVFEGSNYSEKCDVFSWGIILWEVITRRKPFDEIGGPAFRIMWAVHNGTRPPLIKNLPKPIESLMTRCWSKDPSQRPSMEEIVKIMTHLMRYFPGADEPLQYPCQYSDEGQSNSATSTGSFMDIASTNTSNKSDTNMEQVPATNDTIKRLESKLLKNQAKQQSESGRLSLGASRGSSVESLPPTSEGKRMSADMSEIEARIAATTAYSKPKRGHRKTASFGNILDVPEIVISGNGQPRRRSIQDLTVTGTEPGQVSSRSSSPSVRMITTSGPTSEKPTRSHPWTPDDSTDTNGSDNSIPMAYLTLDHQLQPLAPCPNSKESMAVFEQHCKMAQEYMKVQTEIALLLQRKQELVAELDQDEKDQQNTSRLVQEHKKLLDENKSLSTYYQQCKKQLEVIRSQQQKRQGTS
# method: Inhibition of recombinant TAK1 (unknown origin)
experimental-readout: IC50
Please answer in the form of a number followed by its unit of measurement.

## Input Fill blank: measured IC50 of the compound `Cc1cc(NC(=O)Nc2cc(C(C)(C)C)nn2-c2cccc(C#N)c2)ccc1Oc1ccncc1` is ____.
## Output 156 nM

* * *

# method: Solubility in fasted state simulated intestinal fluid irradiated ultrasonically for 10 mins followed by incubation for 24 hrs by HPLC-UV analysis
# Assay type: ADME
experimental-readout: solubility at 24 h (mg/mL)
Answers are plain numbers, in mg/mL.

>>> df
                            compound_string  reading_unit  endpoint_result
0  COc1cc(C(=O)N2CCN(C)CC2)ccc1NC(=O)c1csc2cncnc12         mg/mL            0.312
1  COc1cc(N2CCN(C)CC2)ccc1NC(=O)c1csc2cncnc12         mg/mL            0.351

--- query ---
## Input Fill blank: measured solubility at 24 h of the molecule `COc1cc(C(=O)NCCCN2CCN(C)CC2)ccc1NC(=O)c1csc2cncnc12` is ____.
## Output 0.42

* * *

# target-system: Mitogen-activated protein kinase kinase kinase 7 (Homo sapiens)
# method: Inhibition of human recombinant TAK1 fused with TAB1 using MKK6 as substrate in presence of gamma-[33P]ATP
experimental-readout: pIC50
Numbers only, as −log10 of the molar value.

## Input Fill blank: measured pIC50 of the molecule C[C@H]1OC2C3=C(C(=O)[C@@H]4O[C@@H]4[C@H]3O)C1[C@@H]1[C@@H](C)OC=C3[C@H](O)[C@H]4O[C@H]4C(=O)[C@@]321 (stereo partly specified) is ____.
## Output 4.70

Where do the numbers come from? From ChEMBL document CHEMBL3822434.
